Ref: ChEMBL document CHEMBL4346706

- METHOD SUMMARY: Selectivity index, ratio of GI50 for human HL60 cells to GI50 for bloodstream form of Trypanosoma brucei 427-221a
- Type: toxicity
- TEST CONDITIONS: read-out: RatioGI50
Consider the following molecules; for each one, report its selectivity ratio.
Enter the number alone.

I am curious: what selectivity ratio value has been reported for CC[C@@H](C(=O)[C@@H](C)[C@@H](O)[C@H](C)[C@@H]1O[C@@H]([C@@H](CC)C(=O)NCCc2ccc(F)cc2)CC[C@@H]1C)[C@H]1O[C@]2(C=CC(=O)[C@]3(CC[C@@](C)([C@H]4CC[C@](O)(CC)[C@H](C)O4)O3)O2)[C@H](C)C[C@@H]1C ? 31.7

Then what about the molecule C#CCOC(=O)[C@H](CC)[C@H]1CC[C@H](C)[C@H]([C@@H](C)[C@H](O)[C@H](C)C(=O)[C@H](CC)[C@H]2O[C@]3(C=CC(=O)[C@]4(CC[C@@](C)([C@H]5CC[C@](O)(CC)[C@H](C)O5)O4)O3)[C@H](C)C[C@@H]2C)O1 ? 9.8

Then what about the molecule CC[C@@H](C(=O)[C@@H](C)[C@@H](O)[C@H](C)[C@@H]1O[C@@H]([C@@H](CC)C(=O)O)CC[C@@H]1C)[C@H]1O[C@]2(C=C[C@@H](O)[C@]3(CC[C@@](C)([C@H]4CC[C@](O)(CC)[C@H](C)O4)O3)O2)[C@H](C)C[C@@H]1C ? 31.6

Then what about the molecule CC[C@@H](C(=O)[C@@H](C)[C@@H](O)[C@H](C)[C@@H]1O[C@@H]([C@@H](CC)C(=O)ONC(=O)c2ccccc2)CC[C@@H]1C)[C@H]1O[C@]2(C=CC(=O)[C@]3(CC[C@@](C)([C@H]4CC[C@](O)(CC)[C@H](C)O4)O3)O2)[C@H](C)C[C@@H]1C ? 70

Then what about the molecule C#CCNC(=O)[C@H](CC)[C@H]1CC[C@H](C)[C@H]([C@@H](C)[C@H](O)[C@H](C)C(=O)[C@H](CC)[C@H]2O[C@]3(C=C[C@@H](NCC#C)[C@]4(CC[C@@](C)([C@H]5CC[C@](O)(CC)[C@H](C)O5)O4)O3)[C@H](C)C[C@@H]2C)O1 ? 12.8
